Reference source: ChEMBL document CHEMBL4619722

Kindly state IC50 for each of the entries shown.
Test system: SK-BR-3
MEASUREMENT NOTES: Antiproliferative activity against human SKBR3 cells
Format: functional, cell-based
Numbered stars: 1 amine (or outer) side, 2 acyl side, 3 side chain; on linkers, the order of the positions; unused ones are H or OH. Square brackets hold non-standard residues; d marks the D form. Peptide text beside a SMILES is read from it. * marks the point of attachment. ξ: configuration not given here. X1 = CCC(=O)C[C@H](O)C[C@@H](C)C[C@H](N[*:1])C(=O)[*:2]; Nva(5-pentanoyl) = CCCCC(=O)CCC[C@H](N)C(=O)O; NH((S)CH(Me)CH2NHC2H4OH) = C[C@@H](CNCCO)N*; Gly(octyl) = CCCCCCCC[C@H](N)C(=O)O; X2 = O=C([C@H](CCCCO)N[*:1])[*:2]; Aib = CC(C)(N)C(=O)O; Butyryl = CCCC(=O)*; ξP = O=C(O)C1CCCN1; βAla = NCCC(=O)O
One number for each entry, in nM.

Example cases with answers are listed next.
| MOLECULE | EXPERIMENTAL ENDPOINT | U | NUMERIC RESULT |
| --- | --- | --- | --- |
| CCCCCCCC[C@H](NC(=O)C(C)(C)NC(=O)C(C)(C)NC(=O)CNC(=O)[C@@H]1CCCN1C(=O)CCC)C(=O)N[C@@H](CC(C)C)C(=O)NC(C)(C)C(=O)N[C@@H](CC(C)C)C(=O)NCCC(=O)N[C@@H](C)CNCCO (Butyryl-PG[Aib][Aib][Gly(octyl)]L[Aib]L[βAla]-{NH((S)CH(Me)CH2NHC2H4OH)}) | IC50 | nM | 310 |
| CCCCCCCC[C@H](NC(=O)C(C)(C)NC(=O)C(C)(C)NC(=O)[C@H](CCSC)NC(=O)[C@@H]1CCCN1C(=O)CCC)C(=O)N[C@@H](CC(C)C)C(=O)NC(C)(C)C(=O)N[C@@H](CC(C)C)C(=O)NCCC(=O)N[C@@H](C)CNCCO (Butyryl-PM[Aib][Aib][Gly(octyl)]L[Aib]L[βAla]-{NH((S)CH(Me)CH2NHC2H4OH)}) | IC50 | nM | 43 |
| CCCCCCCC[C@H](NC(=O)C(C)(C)NC(=O)C(C)(C)NC(=O)[C@H](C[C@H](C)C[C@@H](O)CC(=O)CC)NC(=O)[C@@H]1CCCN1C(=O)CCC)C(=O)N[C@@H](CC(C)C)C(=O)NC(C)(C)C(=O)N[C@@H](CC(C)C)C(=O)NCCC(=O)N[C@@H](C)CNCCO (Butyryl-P[X1][Aib][Aib][Gly(octyl)]L[Aib]L[βAla]-{NH((S)CH(Me)CH2NHC2H4OH)}) | IC50 | nM | 25 |
| CCCCCCCC[C@H](NC(=O)C(C)(C)NC(=O)C(C)(C)NC(=O)[C@H](CCCCO)NC(=O)[C@@H]1CCCN1C(=O)CCC)C(=O)N[C@@H](CC(C)C)C(=O)NC(C)(C)C(=O)N[C@@H](CC(C)C)C(=O)NCCC(=O)N[C@@H](C)CNCCO (Butyryl-P[X2][Aib][Aib][Gly(octyl)]L[Aib]L[βAla]-{NH((S)CH(Me)CH2NHC2H4OH)}) | IC50 | nM | 270 |

Lab note: next molecule to report on.
Entry CCCCCCCC[C@H](NC(=O)C(C)(C)NC(=O)C(C)(C)NC(=O)[C@H](CCCC(=O)CCCC)NC(=O)C1CCCN1C(=O)CCC)C(=O)N[C@@H](CC(C)C)C(=O)NC(C)(C)C(=O)N[C@@H](CC(C)C)C(=O)NCCC(=O)N[C@@H](C)CNCCO (stereo partly drawn) (Butyryl-[ξP][Nva(5-pentanoyl)][Aib][Aib][Gly(octyl)]L[Aib]L[βAla]-{NH((S)CH(Me)CH2NHC2H4OH)}) : reported IC50 = ?
47

---

System: NCI-H460
MEASUREMENT NOTES: Antiproliferative activity against human NCI-H460 cells
Format: functional, cell-based
Numbered stars: 1 amine (or outer) side, 2 acyl side, 3 side chain; on linkers, the order of the positions; unused ones are H or OH. Square brackets hold non-standard residues; d marks the D form. Peptide text beside a SMILES is read from it. * marks the point of attachment. X1 = CCC(=O)C[C@H](O)C[C@@H](C)C[C@H](N[*:1])C(=O)[*:2]; NH((S)CH(Me)CH2NHC2H4OH) = C[C@@H](CNCCO)N*; Gly(octyl) = CCCCCCCC[C@H](N)C(=O)O; Ala(cPr) = N[C@@H](CC1CC1)C(=O)O; Ac5c = NC1(C(=O)O)CCCC1; Aib = CC(C)(N)C(=O)O; Butyryl = CCCC(=O)*; βAla = NCCC(=O)O
Kindly state pIC50 for each of the entries shown.
Answers are plain numbers, as −log10 of the molar value.

Example cases with answers are listed next.
| COMPOUND | pIC50 |
| --- | --- |
| CCCC(=O)N1CCC[C@H]1C(=O)N[C@@H](C[C@H](C)C[C@@H](O)CC(=O)CC)C(=O)NC(C)(C)C(=O)NC(C)(C)C(=O)N[C@@H](CC(C)C)C(=O)N[C@@H](CC(C)C)C(=O)NC(C)(C)C(=O)N[C@@H](CC(C)C)C(=O)NCCC(=O)N[C@@H](C)CNCCO (Butyryl-P[X1][Aib][Aib]LL[Aib]L[βAla]-{NH((S)CH(Me)CH2NHC2H4OH)}) | 6.30 |
| CCCCCCCC[C@H](NC(=O)C(C)(C)NC(=O)C(C)(C)NC(=O)[C@H](CC1CC1)NC(=O)[C@@H]1CCCN1C(=O)CCC)C(=O)N[C@@H](CC(C)C)C(=O)NC(C)(C)C(=O)N[C@@H](CC(C)C)C(=O)NCCC(=O)N[C@@H](C)CNCCO (Butyryl-P[Ala(cPr)][Aib][Aib][Gly(octyl)]L[Aib]L[βAla]-{NH((S)CH(Me)CH2NHC2H4OH)}) | 8.10 |
| CCCCCCCC[C@H](NC(=O)C(C)(C)NC(=O)C(C)(C)NC(=O)C1(NC(=O)[C@@H]2CCCN2C(=O)CCC)CCCC1)C(=O)N[C@@H](CC(C)C)C(=O)NC(C)(C)C(=O)N[C@@H](CC(C)C)C(=O)NCCC(=O)N[C@@H](C)CNCCO (Butyryl-P[Ac5c][Aib][Aib][Gly(octyl)]L[Aib]L[βAla]-{NH((S)CH(Me)CH2NHC2H4OH)}) | 7.44 |
| CCCCCCCC[C@H](NC(=O)C(C)(C)NC(=O)C(C)(C)NC(=O)C(C)(C)NC(=O)[C@@H]1CCCN1C(=O)CCC)C(=O)N[C@@H](CC(C)C)C(=O)NC(C)(C)C(=O)N[C@@H](CC(C)C)C(=O)NCCC(=O)N[C@@H](C)CNCCO (Butyryl-P[Aib][Aib][Aib][Gly(octyl)]L[Aib]L[βAla]-{NH((S)CH(Me)CH2NHC2H4OH)}) | 7.24 |
| CCCCCCCC[C@H](NC(=O)[C@@H]1CCCN1C(=O)CCC)C(=O)NC(C)(C)C(=O)NC(C)(C)C(=O)N[C@@H](CCCCCCCC)C(=O)N[C@@H](CC(C)C)C(=O)NC(C)(C)C(=O)N[C@@H](CC(C)C)C(=O)NCCC(=O)N[C@@H](C)CNCCO (Butyryl-P[Gly(octyl)][Aib][Aib][Gly(octyl)]L[Aib]L[βAla]-{NH((S)CH(Me)CH2NHC2H4OH)}) | 8.30 |

Identify the measured pIC50 of CCCCCCCC[C@H](NC(=O)C(C)(C)NC(=O)C(C)(C)NC(=O)[C@H](Cc1ccccc1)NC(=O)[C@@H]1CCCN1C(=O)CCC)C(=O)N[C@@H](CC(C)C)C(=O)NC(C)(C)C(=O)N[C@@H](CC(C)C)C(=O)NCCC(=O)N[C@@H](C)CNCCO (Butyryl-PF[Aib][Aib][Gly(octyl)]L[Aib]L[βAla]-{NH((S)CH(Me)CH2NHC2H4OH)}) for NCI-H460.
8.22

---

Test system: SK-BR-3
MEASUREMENT NOTES: Antiproliferative activity against human SKBR3 cells
Assay type: functional, cell-based
Square brackets hold non-standard residues; d marks the D form. Peptide text beside a SMILES is read from it. * marks the point of attachment. Nva(5-pentanoyl) = CCCCC(=O)CCC[C@H](N)C(=O)O; NH((S)CH(Me)CH2NHC2H4OH) = C[C@@H](CNCCO)N*; Gly(octyl) = CCCCCCCC[C@H](N)C(=O)O; Ala(cPr) = N[C@@H](CC1CC1)C(=O)O; Ac5c = NC1(C(=O)O)CCCC1; Aib = CC(C)(N)C(=O)O; Butyryl = CCCC(=O)*; βAla = NCCC(=O)O
EXPERIMENTAL ENDPOINT: IC50 (nM)
Give bare numbers, in nM.

Example cases with answers are listed next.
| MOLECULE | NUMERIC RESULT |
| --- | --- |
| CCCCCCCC[C@H](NC(=O)C(C)(C)NC(=O)C(C)(C)NC(=O)[C@H](CCCC(=O)CCCC)NC(=O)[C@H](C)N)C(=O)N[C@@H](CC(C)C)C(=O)NC(C)(C)C(=O)N[C@@H](CC(C)C)C(=O)NCCC(=O)N[C@@H](C)CNCCO (H-A[Nva(5-pentanoyl)][Aib][Aib][Gly(octyl)]L[Aib]L[βAla]-{NH((S)CH(Me)CH2NHC2H4OH)}) | 18 |
| CCCCCCCC[C@H](NC(=O)C(C)(C)NC(=O)C(C)(C)NC(=O)C1(NC(=O)[C@@H]2CCCN2C(=O)CCC)CCCC1)C(=O)N[C@@H](CC(C)C)C(=O)NC(C)(C)C(=O)N[C@@H](CC(C)C)C(=O)NCCC(=O)N[C@@H](C)CNCCO (Butyryl-P[Ac5c][Aib][Aib][Gly(octyl)]L[Aib]L[βAla]-{NH((S)CH(Me)CH2NHC2H4OH)}) | 118 |

Lab note: next molecule to report on.
Identify the measured IC50 of CCCCCCCC[C@H](NC(=O)C(C)(C)NC(=O)C(C)(C)NC(=O)[C@H](CC1CC1)NC(=O)[C@@H]1CCCN1C(=O)CCC)C(=O)N[C@@H](CC(C)C)C(=O)NC(C)(C)C(=O)N[C@@H](CC(C)C)C(=O)NCCC(=O)N[C@@H](C)CNCCO (Butyryl-P[Ala(cPr)][Aib][Aib][Gly(octyl)]L[Aib]L[βAla]-{NH((S)CH(Me)CH2NHC2H4OH)}) for SK-BR-3.
29
